target-system: human mu receptor (Homo sapiens)
Construct: expressed in transfected cells; host or cells: CHO cells stably coexpressing the receptor and chimeric Gαqi5
Sequence (P35372 whole entry): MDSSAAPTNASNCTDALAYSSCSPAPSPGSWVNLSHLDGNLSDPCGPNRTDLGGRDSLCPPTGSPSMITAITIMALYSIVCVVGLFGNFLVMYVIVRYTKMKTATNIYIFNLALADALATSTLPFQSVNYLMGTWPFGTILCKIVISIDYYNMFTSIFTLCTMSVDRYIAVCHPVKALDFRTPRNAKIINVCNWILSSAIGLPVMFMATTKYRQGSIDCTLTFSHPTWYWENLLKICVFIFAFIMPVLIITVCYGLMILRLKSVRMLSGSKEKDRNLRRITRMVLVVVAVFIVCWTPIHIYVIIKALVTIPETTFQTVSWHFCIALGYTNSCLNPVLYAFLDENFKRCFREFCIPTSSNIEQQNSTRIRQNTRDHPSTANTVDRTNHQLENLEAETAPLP
test-name: Calcium mobilization, mu opioid receptor
Format: cell-based
experimental-context: molecular formula strings CSV; repeats calcium mobilization values of Tables 1-3
Where a SMILES comes first, the peptide text is derived from it. [ ]: non-standard residue; d: D form. Phe(4-F) = N[C@@H](Cc1ccc(F)cc1)C(=O)O; 2Nal = N[C@@H](Cc1ccc2ccccc2c1)C(=O)O
quantity-kind: pEC50_mu

compound	quantity-kind	result
C[C@H](NC(=O)CNC(=O)[C@H](Cc1ccc(F)cc1)NC(=O)[C@H](Cc1ccccc1)NC(=O)CNC(=O)CNC(=O)[C@@H](N)Cc1ccc(O)cc1)C(=O)N[C@@H](CCCNC(=N)N)C(=O)N[C@@H](CCCCN)C(=O)N[C@@H](CO)C(=O)N[C@@H](C)C(=O)N[C@@H](CCCNC(=N)N)C(=O)N[C@@H](CCCCN)C(N)=O [Compound 21, [Tyr^1,(pF)Phe^5]N/OFQ(1-13)-NH2] (H-YGGF[Phe(4-F)]GARKSARK-NH2)	pEC50_mu	crc incomplete
C[C@H](NC(=O)CNC(=O)[C@H](Cc1ccc2ccccc2c1)NC(=O)[C@H](Cc1ccccc1)NC(=O)CNC(=O)CNC(=O)[C@@H](N)Cc1ccc(O)cc1)C(=O)N[C@@H](CCCNC(=N)N)C(=O)N[C@@H](CCCCN)C(=O)N[C@@H](CO)C(=O)N[C@@H](C)C(=O)N[C@@H](CCCNC(=N)N)C(=O)N[C@@H](CCCCN)C(N)=O [Compound 26, [Tyr^1,2Nal^5]N/OFQ(1-13)-NH2] (H-YGGF[2Nal]GARKSARK-NH2)	pEC50_mu	crc incomplete

====

target-system: human NOP receptor (Homo sapiens)
Construct: expressed in transfected cells; host or cells: CHO cells stably coexpressing the receptor and chimeric Gαqi5
test-name: Calcium mobilization, NOP receptor
Format: cell-based
experimental-context: Table 1 series; calcium mobilization, NOP versus mu
Where a SMILES comes first, the peptide text is derived from it. [ ]: non-standard residue; d: D form. Nva = CCC[C@H](N)C(=O)O
quantity-kind: NOP/mu CR (concentration ratio)
Form rule: numeric answer, no unit written next to it.

Item CCC[C@H](NC(=O)[C@H](Cc1ccccc1)NC(=O)CNC(=O)CNC(=O)[C@@H](N)Cc1ccc(O)cc1)C(=O)NCC(=O)N[C@@H](C)C(=O)N[C@@H](CCCNC(=N)N)C(=O)N[C@@H](CCCCN)C(=O)N[C@@H](CO)C(=O)N[C@@H](C)C(=O)N[C@@H](CCCNC(=N)N)C(=O)N[C@@H](CCCCN)C(N)=O [Compound 13, [Tyr^1,Nva^5]N/OFQ(1-13)-NH2] (H-YGGF[Nva]GARKSARK-NH2) has what recorded NOP/mu CR (concentration ratio)?
0.007

====

target-system: human NOP receptor (Homo sapiens, UniProt P41146)
Construct: expressed in transfected cells; host or cells: CHO cells stably coexpressing the receptor and chimeric Gαqi5
Sequence (P41146 whole entry): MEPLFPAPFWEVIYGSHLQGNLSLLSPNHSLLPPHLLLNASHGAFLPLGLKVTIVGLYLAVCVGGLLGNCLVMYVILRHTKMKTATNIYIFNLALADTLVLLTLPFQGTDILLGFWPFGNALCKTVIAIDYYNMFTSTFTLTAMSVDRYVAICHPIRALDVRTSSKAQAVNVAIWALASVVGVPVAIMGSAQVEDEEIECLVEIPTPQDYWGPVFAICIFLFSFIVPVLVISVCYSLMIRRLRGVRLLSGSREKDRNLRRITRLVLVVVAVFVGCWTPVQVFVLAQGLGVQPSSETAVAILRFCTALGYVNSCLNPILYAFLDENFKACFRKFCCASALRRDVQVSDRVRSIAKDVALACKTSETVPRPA
test-name: Calcium mobilization, NOP receptor
Type: cell-based
experimental-context: read-out: NOP Emax ± S.E.M., Table 3 series; percent over the baseline fluorescence; mean ± SEM of at least three experiments in duplicate; SEM
Where a SMILES comes first, the peptide text is derived from it. [ ]: non-standard residue; d: D form. Phe(4-NH2) = Nc1ccc(C[C@H](N)C(=O)O)cc1; 1Nal = N[C@@H](Cc1cccc2ccccc12)C(=O)O; Dmt = Cc1cc(O)cc(C)c1C[C@H](N)C(=O)O; Phg = N[C@H](C(=O)O)c1ccccc1
quantity-kind: Emax (%)
Give the value, in units of %, as a plain number.

For the compound Cc1cc(O)cc(C)c1C[C@H](N)C(=O)NCC(=O)NCC(=O)N[C@@H](Cc1ccccc1)C(=O)N[C@@H](Cc1ccc(O)cc1)C(=O)NCC(=O)N[C@@H](C)C(=O)N[C@@H](CCCNC(=N)N)C(=O)N[C@@H](CCCCN)C(=O)N[C@@H](CO)C(=O)N[C@@H](C)C(=O)N[C@@H](CCCNC(=N)N)C(=O)N[C@@H](CCCCN)C(N)=O [Compound 30, [Dmt^1,Tyr^5]N/OFQ(1-13)-NH2] (H-[Dmt]GGFYGARKSARK-NH2) , what Emax is on record?
304

Requested field: Emax. Item: Cc1cc(O)cc(C)c1C[C@H](N)C(=O)NCC(=O)NCC(=O)N[C@@H](Cc1ccccc1)C(=O)N[C@@H](Cc1ccccc1)C(=O)NCC(=O)N[C@@H](C)C(=O)N[C@@H](CCCNC(=N)N)C(=O)N[C@@H](CCCCN)C(=O)N[C@@H](CO)C(=O)N[C@@H](C)C(=O)N[C@@H](CCCNC(=N)N)C(=O)N[C@@H](CCCCN)C(N)=O [Compound 31, [Dmt^1,Phe^5]N/OFQ(1-13)-NH2] (H-[Dmt]GGFFGARKSARK-NH2)
277

Emax lookup needed for Cc1cc(O)cc(C)c1C[C@H](N)C(=O)NCC(=O)NCC(=O)N[C@@H](Cc1ccccc1)C(=O)N[C@H](C(=O)NCC(=O)N[C@@H](C)C(=O)N[C@@H](CCCNC(=N)N)C(=O)N[C@@H](CCCCN)C(=O)N[C@@H](CO)C(=O)N[C@@H](C)C(=O)N[C@@H](CCCNC(=N)N)C(=O)N[C@@H](CCCCN)C(N)=O)[C@@H](C)O [Compound 29, [Dmt^1]N/OFQ(1-13)-NH2, reference compound] , thanks.
294

Query (compound): Cc1cc(O)cc(C)c1C[C@H](N)C(=O)NCC(=O)NCC(=O)N[C@@H](Cc1ccccc1)C(=O)N[C@@H](Cc1cccc2ccccc12)C(=O)NCC(=O)N[C@@H](C)C(=O)N[C@@H](CCCNC(=N)N)C(=O)N[C@@H](CCCCN)C(=O)N[C@@H](CO)C(=O)N[C@@H](C)C(=O)N[C@@H](CCCNC(=N)N)C(=O)N[C@@H](CCCCN)C(N)=O [Compound 33, [Dmt^1,1Nal^5]N/OFQ(1-13)-NH2] (H-[Dmt]GGF[1Nal]GARKSARK-NH2) ; field requested: Emax
286

Given the entry Cc1cc(O)cc(C)c1C[C@H](N)C(=O)NCC(=O)NCC(=O)N[C@@H](Cc1ccccc1)C(=O)N[C@@H](Cc1ccc(N)cc1)C(=O)NCC(=O)N[C@@H](C)C(=O)N[C@@H](CCCNC(=N)N)C(=O)N[C@@H](CCCCN)C(=O)N[C@@H](CO)C(=O)N[C@@H](C)C(=O)N[C@@H](CCCNC(=N)N)C(=O)N[C@@H](CCCCN)C(N)=O [Compound 34, [Dmt^1,(pNH2)Phe^5]N/OFQ(1-13)-NH2] (H-[Dmt]GGF[Phe(4-NH2)]GARKSARK-NH2) , report its measured Emax.
258

Field request: Emax | item: Cc1cc(O)cc(C)c1C[C@H](NC(=O)[C@H](Cc1ccccc1)NC(=O)CNC(=O)CNC(=O)[C@@H](N)Cc1c(C)cc(O)cc1C)C(=O)NCC(=O)N[C@@H](C)C(=O)N[C@@H](CCCNC(=N)N)C(=O)N[C@@H](CCCCN)C(=O)N[C@@H](CO)C(=O)N[C@@H](C)C(=O)N[C@@H](CCCNC(=N)N)C(=O)N[C@@H](CCCCN)C(N)=O [Compound 35, [Dmt^1,5]N/OFQ(1-13)-NH2] (H-[Dmt]GGF[Dmt]GARKSARK-NH2)
270

For the compound shown here, Cc1cc(O)cc(C)c1C[C@H](N)C(=O)NCC(=O)NCC(=O)N[C@@H](Cc1ccccc1)C(=O)N[C@H](C(=O)NCC(=O)N[C@@H](C)C(=O)N[C@@H](CCCNC(=N)N)C(=O)N[C@@H](CCCCN)C(=O)N[C@@H](CO)C(=O)N[C@@H](C)C(=O)N[C@@H](CCCNC(=N)N)C(=O)N[C@@H](CCCCN)C(N)=O)c1ccccc1 [Compound 32, [Dmt^1,Phg^5]N/OFQ(1-13)-NH2] (H-[Dmt]GGF[Phg]GARKSARK-NH2) , give the reported Emax.
282

====

target-system: human NOP receptor (Homo sapiens)
Construct: expressed in transfected cells; host or cells: CHO cells stably coexpressing the receptor and chimeric Gαqi5
test-name: Calcium mobilization, NOP receptor
Assay type: cell-based
experimental-context: Table 1 series; calcium mobilization, NOP versus mu
Where no end group is shown, it is not given here.
Param threshold (0.003) applies to NOP/mu CR (concentration ratio); output Condition met when value >= threshold, Condition not met when value < threshold.

Assess whether reported NOP/mu CR (concentration ratio) for YGGFLGARKSARK-NH2 [Compound 11, [Tyr^1,Leu^5]N/OFQ(1-13)-NH2] sits at 0.003 or higher.
Condition met

# bool: NOP/mu CR (concentration ratio) of YGGFNGARKSARK-NH2 [Compound 4, [Tyr^1,Asn^5]N/OFQ(1-13)-NH2] >= 0.003
Condition not met

In plain terms: is recorded NOP/mu CR (concentration ratio) at least 0.003 for YGGFKGARKSARK-NH2 [Compound 8, [Tyr^1,Lys^5]N/OFQ(1-13)-NH2] ?
Condition met

Record YGGFYGARKSARK-NH2 [Compound 14, [Tyr^1,5]N/OFQ(1-13)-NH2] ; criterion: NOP/mu CR (concentration ratio) no lower than 0.003. Met?
Condition met

Entry YGGFTGARKSARK-NH2 [Compound 3, [Tyr^1]N/OFQ(1-13)-NH2, reference compound] : is its NOP/mu CR (concentration ratio) no less than 0.003?
Condition not met

Test whether the substance YGGFVGARKSARK-NH2 [Compound 5, [Tyr^1,Val^5]N/OFQ(1-13)-NH2] records NOP/mu CR (concentration ratio) of 0.003 or higher.
Condition not met

Cited source: paper PMC8279409
